- TARGET ENTITY: UniProt:P35869
- Sequence (P35869 11-848): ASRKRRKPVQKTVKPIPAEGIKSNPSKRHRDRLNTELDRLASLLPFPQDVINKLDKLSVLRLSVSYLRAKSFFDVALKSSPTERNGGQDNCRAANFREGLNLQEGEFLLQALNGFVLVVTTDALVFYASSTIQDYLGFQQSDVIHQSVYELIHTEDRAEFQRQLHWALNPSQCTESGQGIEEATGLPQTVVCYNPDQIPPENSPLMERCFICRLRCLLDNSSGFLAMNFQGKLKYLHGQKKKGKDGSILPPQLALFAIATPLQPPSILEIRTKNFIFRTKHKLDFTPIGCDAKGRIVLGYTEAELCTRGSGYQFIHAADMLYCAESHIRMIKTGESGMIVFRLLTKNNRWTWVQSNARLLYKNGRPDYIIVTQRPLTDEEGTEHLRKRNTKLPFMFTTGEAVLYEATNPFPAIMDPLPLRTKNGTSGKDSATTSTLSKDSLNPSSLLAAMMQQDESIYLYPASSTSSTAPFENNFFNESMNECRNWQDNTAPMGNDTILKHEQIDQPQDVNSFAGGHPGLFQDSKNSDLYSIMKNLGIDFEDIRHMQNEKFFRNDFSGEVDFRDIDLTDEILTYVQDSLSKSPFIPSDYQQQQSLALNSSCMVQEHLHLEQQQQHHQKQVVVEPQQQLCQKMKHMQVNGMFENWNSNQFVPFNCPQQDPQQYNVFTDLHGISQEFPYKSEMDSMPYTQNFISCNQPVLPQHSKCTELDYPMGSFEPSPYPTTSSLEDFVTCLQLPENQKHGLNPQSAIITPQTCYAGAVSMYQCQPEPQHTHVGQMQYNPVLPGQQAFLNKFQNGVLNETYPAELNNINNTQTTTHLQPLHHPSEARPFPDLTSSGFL
- TEST PROTOCOL: In vitro assay 1: antagonism in human cell line (transactivation assay, kynurenic acid prestimulated)
- PARTICULARS: Assay 1: AHR-luc Hum Antagonism IC50 [M], 150 μM kynurenic acid, 20 hours, firefly luciferase
MEASURED QUANTITY: IC50 (M)

Worked examples follow.
>>> print(df.to_string())
                                   molecule  uom  measured_number
0  O=C(N[C@H]1CC[C@@H]1O)c1cc(-c2ccc(Cl)cc2)nn(-c2cccc(F)c2)c1=O (racemic) [Example 348]    M         5.11e-08
1  O=C(NC(CO)CCO)c1cc(-c2ccc(Cl)cc2)nn(-c2cccc(F)c2)c1=O (racemic) [Example 224]    M         2.79e-07
2  C[C@H](O)[C@H](C)NC(=O)c1cc(-c2ccc(Cl)cc2)nn(-c2cccc(F)c2)c1=O    M          2.3e-08
3  CC(C)C(O)CNC(=O)c1cc(-c2ccc(Cl)cc2)nn(-c2cc(F)cc(F)c2)c1=O (single isomer, unassigned) [Example 49]    M         3.42e-08

[P] COCCC(CO)NC(=O)c1cc(-c2ccc(C(F)(F)F)cc2)nn(-c2cccc(F)c2)c1=O (single isomer, unassigned; (+)) [Example 332]
[Q] CC(C)(O)C(NC(=O)c1cc(-c2ccc(Cl)cc2)nn(-c2cccc(F)c2)c1=O)C(F)(F)F (single isomer, unassigned) [Example 279]
Exam item: // max by IC50 over [ P , Q ] Response format: the label of the selected entry.
Marked response: P
(P: 6.06e-08 M, Q: 6.07e-09 M)
